- Target Desc: T1, EsCas13d, nuclease-dead (Eubacterium siraeum, UniProt B0MS50, R295A;H300A;R849A;H854A)
- T1 sequence: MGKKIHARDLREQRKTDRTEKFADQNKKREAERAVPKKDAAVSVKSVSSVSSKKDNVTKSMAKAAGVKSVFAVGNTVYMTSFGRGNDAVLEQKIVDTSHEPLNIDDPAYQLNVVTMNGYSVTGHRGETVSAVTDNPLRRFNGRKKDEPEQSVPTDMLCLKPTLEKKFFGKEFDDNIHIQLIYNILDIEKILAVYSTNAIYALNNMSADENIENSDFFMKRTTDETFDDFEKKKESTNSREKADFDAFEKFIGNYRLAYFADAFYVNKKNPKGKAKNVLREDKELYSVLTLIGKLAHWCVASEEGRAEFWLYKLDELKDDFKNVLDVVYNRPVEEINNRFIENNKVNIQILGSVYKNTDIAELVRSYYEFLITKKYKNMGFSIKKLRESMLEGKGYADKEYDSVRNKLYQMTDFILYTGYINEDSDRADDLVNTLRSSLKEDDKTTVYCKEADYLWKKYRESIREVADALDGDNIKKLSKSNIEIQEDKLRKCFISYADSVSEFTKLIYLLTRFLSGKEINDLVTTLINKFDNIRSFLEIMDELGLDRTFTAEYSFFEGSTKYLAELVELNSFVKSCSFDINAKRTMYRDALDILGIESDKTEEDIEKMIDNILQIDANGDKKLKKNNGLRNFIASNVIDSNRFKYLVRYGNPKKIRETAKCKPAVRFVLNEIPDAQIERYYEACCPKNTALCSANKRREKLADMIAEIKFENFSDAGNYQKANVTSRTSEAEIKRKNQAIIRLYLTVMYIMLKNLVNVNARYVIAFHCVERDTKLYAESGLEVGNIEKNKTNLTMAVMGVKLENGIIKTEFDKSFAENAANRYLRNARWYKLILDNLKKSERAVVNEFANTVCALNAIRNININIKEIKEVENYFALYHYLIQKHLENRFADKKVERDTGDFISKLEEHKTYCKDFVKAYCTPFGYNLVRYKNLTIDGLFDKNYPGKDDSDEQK
- Assay: crRNA (strand 1, pre-loaded); Mg2+; 40 mM Tris-HCl pH 7.5, 150 mM NaCl, 6 mM MgCl2, 1 mM DTT, 0.1% Tween-20, 0.2 mg/ml BSA; 25 C; 10 min per concentration, then washed
- Experimental Setup: tags: His6-TwinStrep-SUMO cleaved; N-terminal SNAP kept (SNAP-Surface 488); label: 3' end held by stalled T7 RNA polymerase
Readout Name: Kd
Field note: include the unit after the figure.

INSERT INTO assay_data (binder, readout_name, recorded_result) VALUES
  ('target 1 complement block 2-4 (mixed) RNA 1: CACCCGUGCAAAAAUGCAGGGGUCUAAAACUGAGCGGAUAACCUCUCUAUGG RNA 2: GGGAAUGGAUCCACAUCUACGAAUUCGUACCAUAGAGAGGUUAUCCGGAGACCGAGAUCGGAAGAGCACACGU', 'Kd', '11 nM');

With those in mind, consider the next binder.
// field: Kd; key: target 1 insC 3' of 19,insA 3' of 11 (mixed) RNA 1: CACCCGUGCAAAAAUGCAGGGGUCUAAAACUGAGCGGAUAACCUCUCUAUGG RNA 2: GGGAAUGGAUCCACAUCUACGAAUUCGUACCAUCAGAGAGGUAUAUCCGCUCACCGAGAUCGGAAGAGCACACGU ; value = 98 nM
